target: IKZF2 (Homo sapiens, UniProt Q96SW2+Q9UKS7); assay: Human whole blood IKZF2 degradation (flow cytometry, CD4/CD25/Foxp3+ Treg cells); format: cell-based; set-up: endogenous in cells; conditions: 24 hrs incubation, IKZF2 MFI in CD4/CD25/Foxp3+ Treg cells, flow cytometry
Sequence (Q9UKS7 whole entry, one chain of several): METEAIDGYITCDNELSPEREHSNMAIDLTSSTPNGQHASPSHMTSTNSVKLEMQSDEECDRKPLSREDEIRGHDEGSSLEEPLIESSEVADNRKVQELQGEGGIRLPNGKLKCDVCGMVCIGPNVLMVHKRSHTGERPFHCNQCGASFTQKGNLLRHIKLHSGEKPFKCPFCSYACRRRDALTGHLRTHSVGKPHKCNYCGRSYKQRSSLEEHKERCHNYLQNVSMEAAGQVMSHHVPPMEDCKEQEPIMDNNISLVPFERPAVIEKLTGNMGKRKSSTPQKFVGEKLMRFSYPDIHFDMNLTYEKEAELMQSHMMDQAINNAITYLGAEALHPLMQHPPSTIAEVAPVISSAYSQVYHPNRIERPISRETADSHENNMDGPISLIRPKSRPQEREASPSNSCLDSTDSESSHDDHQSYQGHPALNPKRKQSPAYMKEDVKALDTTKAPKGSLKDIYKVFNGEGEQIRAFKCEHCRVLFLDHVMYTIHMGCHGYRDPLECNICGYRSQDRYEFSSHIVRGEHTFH
quantity: Dmax (%)

Looking up CC1(C)CC(N[C@H]2CCCC[C@@H]2Cc2ccc3c(c2)CN(C2CCC(=O)NC2=O)C3=O)C1 (some centres unmarked) , I see its Dmax listed as 89

Looking up O=C1CCC(N2Cc3cc(C[C@H]4CCCC[C@@H]4NC4CCCCC4)ccc3C2=O)C(=O)N1 (some centres unmarked) , I see its Dmax listed as 96

Looking up O=C1CCC(N2Cc3c(ccc(C[C@H]4OCCC[C@@H]4N[C@H]4CC[C@@H](F)CC4)c3F)C2=O)C(=O)N1 (single isomer, unassigned) , I see its Dmax listed as 96

Looking up O=C1CCC(N2Cc3cc(C[C@H]4CCCC[C@@H]4NC4CCC5(CC5)C4)ccc3C2=O)C(=O)N1 (single isomer, unassigned) , I see its Dmax listed as 98

Looking up CCC(C)N[C@H]1CCCC[C@@H]1Cc1ccc2c(c1)CN(C1CCC(=O)NC1=O)C2=O (single isomer, unassigned) , I see its Dmax listed as 96

Looking up C[C@]1(O)CC[C@H](NC2CCC(F)(F)CC2)[C@@H](Cc2ccc3c(c2)CN(C2CCC(=O)NC2=O)C3=O)C1 (some centres unmarked) , I see its Dmax listed as 91

Looking up O=C1CCC(N2Cc3cc(C[C@H]4CCCC[C@@H]4NC4CCCC4)ccc3C2=O)C(=O)N1 (some centres unmarked) , I see its Dmax listed as 95

Looking up [2H]C1(N[C@H]2CCCC[C@@H]2Cc2ccc3c(c2)CN(C2CCC(=O)NC2=O)C3=O)CC(C)(C)C1 (some centres unmarked) , I see its Dmax listed as 98

Looking up O=C1CCC(N2Cc3cc(C[C@H]4CCCC[C@@H]4NC4CC5(CCOCC5)C4)ccc3C2=O)C(=O)N1 (some centres unmarked) , I see its Dmax listed as 91

Looking up O=C1CCC(N2Cc3c(ccc(C[C@H]4CCCC[C@@H]4NCC4COC4)c3F)C2=O)C(=O)N1 (some centres unmarked) , I see its Dmax listed as 98

Looking up CC(N[C@H]1CCCC[C@@H]1Cc1ccc2c(c1)CN(C1CCC(=O)NC1=O)C2=O)C12CC(C1)C2 (some centres unmarked) , I see its Dmax listed as 96

###

target: IKZF1 (Homo sapiens, UniProt Q13422+Q96SW2); construct: expressed in transfected cells; assay: HEK293 HiBiT in vitro degradation of IKZF1; type: cell-based; settings: HEK293 HiBiT, 18-24 hr incubation, normalized to DMSO control; read-out: IKZF1 EC50
Sequence (Q13422 whole entry): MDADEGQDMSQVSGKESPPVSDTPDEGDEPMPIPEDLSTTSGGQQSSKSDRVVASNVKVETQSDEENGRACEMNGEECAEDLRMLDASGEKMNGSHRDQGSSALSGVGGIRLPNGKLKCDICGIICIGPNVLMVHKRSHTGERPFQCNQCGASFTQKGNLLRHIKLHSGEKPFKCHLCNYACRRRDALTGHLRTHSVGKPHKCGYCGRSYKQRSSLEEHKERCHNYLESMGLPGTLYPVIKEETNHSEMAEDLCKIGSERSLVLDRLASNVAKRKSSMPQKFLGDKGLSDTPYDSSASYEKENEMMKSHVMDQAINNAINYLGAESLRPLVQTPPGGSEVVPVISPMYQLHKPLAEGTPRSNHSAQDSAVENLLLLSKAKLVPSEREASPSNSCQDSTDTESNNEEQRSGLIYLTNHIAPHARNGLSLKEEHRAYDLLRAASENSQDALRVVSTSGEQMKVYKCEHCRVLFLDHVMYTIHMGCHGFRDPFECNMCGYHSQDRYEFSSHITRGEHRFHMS
Sequence (Q96SW2 whole entry): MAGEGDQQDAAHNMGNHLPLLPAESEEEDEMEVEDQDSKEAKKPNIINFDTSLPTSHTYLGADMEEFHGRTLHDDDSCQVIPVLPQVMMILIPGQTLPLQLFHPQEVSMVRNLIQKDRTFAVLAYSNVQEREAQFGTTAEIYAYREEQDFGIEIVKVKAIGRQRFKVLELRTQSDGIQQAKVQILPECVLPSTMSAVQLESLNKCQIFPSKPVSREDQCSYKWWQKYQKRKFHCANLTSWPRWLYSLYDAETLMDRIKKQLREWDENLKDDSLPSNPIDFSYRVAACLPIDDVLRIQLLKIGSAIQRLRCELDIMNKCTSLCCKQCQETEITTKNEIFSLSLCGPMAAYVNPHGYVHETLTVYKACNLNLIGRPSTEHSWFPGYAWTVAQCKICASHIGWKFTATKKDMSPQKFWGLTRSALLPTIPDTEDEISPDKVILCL
Sequence (Q16531 whole entry partner): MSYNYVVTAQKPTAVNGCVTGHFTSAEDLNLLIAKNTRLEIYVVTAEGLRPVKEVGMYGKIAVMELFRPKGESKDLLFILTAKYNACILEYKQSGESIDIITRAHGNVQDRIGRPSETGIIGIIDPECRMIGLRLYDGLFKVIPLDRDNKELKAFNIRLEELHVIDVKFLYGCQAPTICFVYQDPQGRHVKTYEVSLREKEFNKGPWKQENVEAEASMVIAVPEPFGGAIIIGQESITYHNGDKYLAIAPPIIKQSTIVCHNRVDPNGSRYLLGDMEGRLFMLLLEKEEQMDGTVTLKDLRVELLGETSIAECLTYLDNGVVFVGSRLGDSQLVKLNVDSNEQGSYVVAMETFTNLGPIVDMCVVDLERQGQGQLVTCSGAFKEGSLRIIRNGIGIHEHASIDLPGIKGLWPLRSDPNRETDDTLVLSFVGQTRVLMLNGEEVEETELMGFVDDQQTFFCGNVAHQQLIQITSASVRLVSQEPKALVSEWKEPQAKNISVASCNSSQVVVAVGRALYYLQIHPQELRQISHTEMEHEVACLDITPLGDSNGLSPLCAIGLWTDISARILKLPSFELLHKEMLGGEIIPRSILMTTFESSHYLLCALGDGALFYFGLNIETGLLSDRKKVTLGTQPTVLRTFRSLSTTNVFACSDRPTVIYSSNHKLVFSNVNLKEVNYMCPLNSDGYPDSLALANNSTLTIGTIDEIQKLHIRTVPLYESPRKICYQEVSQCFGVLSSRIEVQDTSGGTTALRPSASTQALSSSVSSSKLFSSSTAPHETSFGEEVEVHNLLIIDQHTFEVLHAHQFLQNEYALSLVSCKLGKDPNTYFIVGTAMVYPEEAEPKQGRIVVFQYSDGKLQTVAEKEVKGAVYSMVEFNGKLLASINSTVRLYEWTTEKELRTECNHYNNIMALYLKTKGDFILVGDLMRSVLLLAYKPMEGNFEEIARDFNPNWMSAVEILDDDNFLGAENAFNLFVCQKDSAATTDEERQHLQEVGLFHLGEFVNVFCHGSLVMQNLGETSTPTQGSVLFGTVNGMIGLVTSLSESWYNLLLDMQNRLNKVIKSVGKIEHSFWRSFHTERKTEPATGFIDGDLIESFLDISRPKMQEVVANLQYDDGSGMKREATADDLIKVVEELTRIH
quantity: DC50 (nM)

Sample answers from the record:
Looking up O=C1CCC(N2Cc3c(ccc(C[C@H]4CCCC[C@@H]4NCC4CCOCC4)c3F)C2=O)C(=O)N1 (stereo partly drawn) [Example 115] , I see its DC50 listed as 78

Looking up [2H]C1(N[C@H]2CCCC[C@@H]2Cc2ccc3c(c2F)CN(C2CCC(=O)NC2=O)C3=O)CCC(F)(F)CC1 (stereo partly drawn) , I see its DC50 listed as 35

Looking up O=C1CCC(N2Cc3cc(C[C@H]4CCCC[C@@H]4NC4CC5(C4)CC(F)(F)C5)ccc3C2=O)C(=O)N1 (stereo partly drawn) , I see its DC50 listed as 39

Looking up O=C1CCC(N2Cc3cc(C[C@H]4CCCC[C@@H]4NC4CCC5(CCO5)CC4)ccc3C2=O)C(=O)N1 (stereo partly drawn) [Example 171] , I see its DC50 listed as 198

Looking up O=C1CCC(N2Cc3c(ccc(C[C@H]4CCCC[C@@H]4NCC4COC4)c3F)C2=O)C(=O)N1 (stereo partly drawn) [Example 114] , I see its DC50 listed as 88

(A) C=C1CC[C@H](N)[C@@H](Cc2ccc3c(c2)CN(C2CCC(=O)NC2=O)C3=O)C1 (stereo partly drawn)
(B) O=C1CCC(N2Cc3c(ccc(C[C@H]4OCCC[C@@H]4NC4CCC(OC(F)F)CC4)c3F)C2=O)C(=O)N1 (single isomer, unassigned) [Example 327]
Thinking about recorded DC50 values, which is higher, A or B ? Indicate which entry you chose by stating its label.
B
(B: 535 nM, A: 108 nM)

(1) CC(N[C@H]1CC(F)(F)CC[C@@H]1Cc1ccc2c(c1)CN(C1CCC(=O)NC1=O)C2=O)C1CCOCC1 (stereo partly drawn)
(2) O=C1CCC(N2Cc3cc(C[C@H]4CC[C@@H](F)C[C@@H]4NC4CCC(F)(F)CC4)ccc3C2=O)C(=O)N1 (stereo partly drawn)
Thinking about recorded DC50 values, which is higher, 1 or 2 ? Indicate which entry you chose by stating its label.
1
